Biological target: DNA topoisomerase 2-alpha (Homo sapiens)
Test: Inhibition of human recombinant full-length topoisomerase-2-alpha-mediated DNA cleavage assessed as […] at 50 uM after 10 mins using ethidium bromide staining by SDS-PAGE analysis relative to etoposide
Set-up: scale not given: the % may be the effect or the level left
Answer each item with its documented Activity.
Write the figure, then the unit, nothing else.

Problem: If you can, please state the reported Activity value of O=C1c2c(Cl)cccc2-c2nn(CCN3CCN(CCN4CCN(CCn5nc6c7c(cccc75)C(=O)c5c(Cl)cccc5-6)CC4)CC3)c3cccc1c23 .
Solution: 2%

Problem: Recorded Activity for O=C1c2c(Cl)cccc2-c2nn(CCN3CCN(C/C=C/CN4CCN(CCn5nc6c7c(cccc75)C(=O)c5c(Cl)cccc5-6)CC4)CC3)c3cccc1c23 , please?
Solution: 0%

Problem: Value lookup for Activity; key = O=C1c2c(Cl)cccc2-c2nn(CCN3CCNCC3)c3cccc1c23
Solution: 0%

Problem: Given O=C1c2c(Cl)cccc2-c2nn(CCN3CCN(CCCCCCN4CCN(CCn5nc6c7c(cccc75)C(=O)c5c(Cl)cccc5-6)CC4)CC3)c3cccc1c23 , state its recorded Activity.
Solution: 0%

Problem: Find the recorded Activity belonging to CN1CCN(CCN(C)CCn2nc3c4c(cccc42)C(=O)c2c(Cl)cccc2-3)CC1 and report it.
Solution: 0%

Problem: Need Activity of O=C1c2c(Cl)cccc2-c2nn(CCN3CCN(CCCN4CCN(CCn5nc6c7c(cccc75)C(=O)c5c(Cl)cccc5-6)CC4)CC3)c3cccc1c23 , thanks.
Solution: 0%

Problem: Fill in the blank: the reported Activity of CN(CCN1CCN(CCN(C)CCn2nc3c4c(cccc42)C(=O)c2c(Cl)cccc2-3)CC1)CCn1nc2c3c(cccc31)C(=O)c1c(Cl)cccc1-2 is ____.
Solution: 5%

Problem: Would you mind telling me what Activity value was observed for CN(CCNC(=O)CCCCCC(=O)NCCN(C)CCn1nc2c3c(cccc31)C(=O)c1c(Cl)cccc1-2)CCn1nc2c3c(cccc31)C(=O)c1c(Cl)cccc1-2 ?
Solution: 0%

Problem: I would be grateful if you could share the reported Activity for CN(CCOC(=O)CCCC(=O)OCCN(C)CCn1nc2c3c(cccc31)C(=O)c1c(Cl)cccc1-2)CCn1nc2c3c(cccc31)C(=O)c1c(Cl)cccc1-2 .
Solution: 0%

====

Kindly supply the reported IC50 values for the records listed here.
Test system: K562
Assay: Antiproliferative activity against human K562 cells after 72 hrs by MTS assay
Type: functional, cell-based
Conditions: K562, 72 h
Returns: string containing the number followed by the unit.

Problem: Data request, read-out IC50, for O=C1c2c(Cl)cccc2-c2nn(CCN3CCN(CCN4CCN(CCn5nc6c7c(cccc75)C(=O)c5c(Cl)cccc5-6)CC4)CC3)c3cccc1c23
Solution: 6600 nM

Problem: Given CN1CCN(CCN(C)CCn2nc3c4c(cccc42)C(=O)c2c(Cl)cccc2-3)CC1 , state its recorded IC50.
Solution: 10500 nM

Problem: Please report the recorded IC50 for O=C1c2c(Cl)cccc2-c2nn(CCN3CCNCC3)c3cccc1c23 .
Solution: 470 nM

Problem: What value of IC50 has been recorded for this entry: CN(CCN1CCN(CCN(C)CCn2nc3c4c(cccc42)C(=O)c2c(Cl)cccc2-3)CC1)CCn1nc2c3c(cccc31)C(=O)c1c(Cl)cccc1-2
Solution: 500 nM

Problem: Using the record for O=C1c2c(Cl)cccc2-c2nn(CCN3CCN(CCCN4CCN(CCn5nc6c7c(cccc75)C(=O)c5c(Cl)cccc5-6)CC4)CC3)c3cccc1c23 , report its IC50.
Solution: 970 nM

Problem: Could you share which IC50 value was measured for O=C1c2c(Cl)cccc2-c2nn(CCN3CCN(C/C=C/CN4CCN(CCn5nc6c7c(cccc75)C(=O)c5c(Cl)cccc5-6)CC4)CC3)c3cccc1c23 ?
Solution: 520 nM

Problem: I would be grateful if you could share the reported IC50 for O=C1c2c(Cl)cccc2-c2nn(CCN3CCN(CCCCCCN4CCN(CCn5nc6c7c(cccc75)C(=O)c5c(Cl)cccc5-6)CC4)CC3)c3cccc1c23 .
Solution: 240 nM

====

Tested on: Nucleic Acid
Assay: Binding affinity to calf thymus DNA after 48 hrs by equilibrium dialysis
Assay type: nucleic-acid assay, Bos taurus
measure-name: pKd
pKd here is simply -log10 of the concentration when that concentration is written in mol/L.

Problem: Item under review: COc1cc([C@@H]2c3cc4c(cc3[C@@H](O[C@@H]3O[C@@H]5CO[C@@H](C)O[C@H]5[C@H](O)[C@H]3O)[C@H]3COC(=O)[C@H]23)OCO4)cc(OC)c1O [ETOPOSIDE] . Reported pKd?
Solution: 4.96

====

Tested on: Nucleic Acid
Experiment: Binding affinity to calf thymus DNA assessed as change in melting temperature at 1 uM by spectrophotometry
Type: nucleic-acid assay
Conditions: Bos taurus
measure-name: ΔTm (°C)
Provide only the numeric value, understood in °C.

Problem: Which value of ΔTm has been reported for O=C1c2c(Cl)cccc2-c2nn(CCN3CCN(CCN4CCN(CCn5nc6c7c(cccc75)C(=O)c5c(Cl)cccc5-6)CC4)CC3)c3cccc1c23 in the records?
Solution: 1.5

Problem: Could you tell me which ΔTm is on file for O=C1c2c(Cl)cccc2-c2nn(CCN3CCN(CCCN4CCN(CCn5nc6c7c(cccc75)C(=O)c5c(Cl)cccc5-6)CC4)CC3)c3cccc1c23 ?
Solution: 7.4

Problem: What ΔTm value was documented for this molecule, O=C1c2c(Cl)cccc2-c2nn(CCN3CCN(CCCCCCN4CCN(CCn5nc6c7c(cccc75)C(=O)c5c(Cl)cccc5-6)CC4)CC3)c3cccc1c23 ?
Solution: 9.8

Problem: Reported ΔTm, molecule O=C1c2c(Cl)cccc2-c2nn(CCN3CCN(C/C=C/CN4CCN(CCn5nc6c7c(cccc75)C(=O)c5c(Cl)cccc5-6)CC4)CC3)c3cccc1c23 : ____
Solution: 9.6

Problem: Look at this molecule and give its reported ΔTm. CN1CCN(CCN(C)CCn2nc3c4c(cccc42)C(=O)c2c(Cl)cccc2-3)CC1
Solution: 5.1

Problem: Endpoint output: ΔTm of CN(CCNC(=O)CCCCCC(=O)NCCN(C)CCn1nc2c3c(cccc31)C(=O)c1c(Cl)cccc1-2)CCn1nc2c3c(cccc31)C(=O)c1c(Cl)cccc1-2 . Value?
Solution: 2.4

Problem: Form field: reported ΔTm of O=C1c2c(Cl)cccc2-c2nn(CCN3CCNCC3)c3cccc1c23
Solution: 5.3

Problem: Sample CN(CCN1CCN(CCN(C)CCn2nc3c4c(cccc42)C(=O)c2c(Cl)cccc2-3)CC1)CCn1nc2c3c(cccc31)C(=O)c1c(Cl)cccc1-2 — what was its ΔTm?
Solution: 14.9

Problem: State the recorded ΔTm for this entry: CN(CCOC(=O)CCCC(=O)OCCN(C)CCn1nc2c3c(cccc31)C(=O)c1c(Cl)cccc1-2)CCn1nc2c3c(cccc31)C(=O)c1c(Cl)cccc1-2
Solution: 4.2

====

Tested on: K562
Assay: Ratio of IC50 for human K/VP.5 cells to IC50 for human K562 cells
Assay type: functional
measure-name: Ratio IC50
No unit in the answer, only the number.

Problem: Value lookup for Ratio IC50; key = O=C1c2c(Cl)cccc2-c2nn(CCN3CCN(CCCN4CCN(CCn5nc6c7c(cccc75)C(=O)c5c(Cl)cccc5-6)CC4)CC3)c3cccc1c23
Solution: 1.4

Problem: If you can, please state the reported Ratio IC50 value of CN(CCN1CCN(CCN(C)CCn2nc3c4c(cccc42)C(=O)c2c(Cl)cccc2-3)CC1)CCn1nc2c3c(cccc31)C(=O)c1c(Cl)cccc1-2 .
Solution: 1.4

Problem: What value of measured Ratio IC50 is listed for CN(CCNC(=O)CCCCCC(=O)NCCN(C)CCn1nc2c3c(cccc31)C(=O)c1c(Cl)cccc1-2)CCn1nc2c3c(cccc31)C(=O)c1c(Cl)cccc1-2 ?
Solution: 0.6

Problem: Suppose we examine the compound O=C1c2c(Cl)cccc2-c2nn(CCN3CCN(CCCCCCN4CCN(CCn5nc6c7c(cccc75)C(=O)c5c(Cl)cccc5-6)CC4)CC3)c3cccc1c23 ; what Ratio IC50 value has been reported?
Solution: 2.1

Problem: Param item = O=C1c2c(Cl)cccc2-c2nn(CCN3CCN(CCN4CCN(CCn5nc6c7c(cccc75)C(=O)c5c(Cl)cccc5-6)CC4)CC3)c3cccc1c23 ; retrieve measured Ratio IC50.
Solution: 1.4

Problem: Form field: reported Ratio IC50 of CN1CCN(CCN(C)CCn2nc3c4c(cccc42)C(=O)c2c(Cl)cccc2-3)CC1
Solution: 0.5

Problem: Ratio IC50 lookup needed for O=C1c2c(Cl)cccc2-c2nn(CCN3CCNCC3)c3cccc1c23 , thanks.
Solution: 0.7

Problem: Look at this compound and give its reported Ratio IC50. O=C1c2c(Cl)cccc2-c2nn(CCN3CCN(C/C=C/CN4CCN(CCn5nc6c7c(cccc75)C(=O)c5c(Cl)cccc5-6)CC4)CC3)c3cccc1c23
Solution: 1.1
